# Test system: A549
# Procedure Summary: relative viability (normalised to negative control = 1, bortezomib = 0) (fraction); higher = less cytotoxic
# Study Conditions: inflammatory serum-free RHB-A with cytokines + LPS; 5 d + 24 h CellTiter-Blue; compound 30 nM; GSK126 pretreatment: 5 uM GSK126
Where a name gives a salt, the structure may show the parent alone.
Recorded measurements of relative viability, one per entry
Result Type: relative viability

[[record]]
compound = "S=P(N1CC1)(N1CC1)N1CC1"
value_reported = 1.01

[[record]]
compound = "CNC(=O)c1c(F)cccc1Nc1nc(Nc2cc3c(cc2OC)CCN3C(=O)CN(C)C)nc2[nH]ccc12"
value_reported = 0.762

[[record]]
compound = "C=CC(=O)Nc1cccc(Oc2nc(Nc3ccc(N4CCN(C)CC4)cc3OC)ncc2Cl)c1"
value_reported = 0.978

[[record]]
compound = "N#C/C(=C/c1ccc(O)c(O)c1)C(=O)NCc1ccccc1"
value_reported = 0.914

[[record]]
compound = "CCN(CC)CCCC(C)Nc1c2ccc(Cl)cc2nc2ccc(OC)cc12 (configuration not stated)"
value_reported = 0.836

[[record]]
compound = "CNC(=O)c1cc(COc2nnc(Nc3ccc(Cl)cc3)c3ccoc23)ccn1"
value_reported = 0.896

[[record]]
compound = "O=C(Cc1ccc(-c2ccc(OCCN3CCOCC3)cc2)cn1)NCc1ccccc1"
value_reported = 0.319

[[record]]
compound = "Cn1cc(-c2ccc3nnc(Sc4ccc5ncccc5c4)n3n2)cn1"
value_reported = 0.807

[[record]]
compound = "Cc1cccc(-c2[nH]c(C(C)(C)C)nc2-c2ccc3nccnc3c2)n1"
value_reported = 0.848

[[record]]
compound = "CS(=O)(=O)CCNCc1ccc(-c2ccc3ncnc(Nc4ccc(OCc5cccc(F)c5)c(Cl)c4)c3c2)o1 [Lapatinib ditosylate; Lapatinib; Lapatinib Ditosylate]"
value_reported = 0.811

[[record]]
compound = "O=C(CCBr)N1CCN(C(=O)CCBr)CC1"
value_reported = 0.735

[[record]]
compound = "O=C1NC(=O)/C(=C\\c2ccc3nccnc3c2)S1"
value_reported = 0.877

[[record]]
compound = "CCc1c2c(nc3ccc(OC(=O)N4CCC(N5CCCCC5)CC4)cc13)-c1cc3c(c(=O)n1C2)COC(=O)[C@]3(O)CC [Irinotecan HCl; Irinotecan hydrochloride]"
value_reported = 0.898

[[record]]
compound = "CN(C)c1ccc(-c2nc3ncc(Cl)c(N4CCN(CC(=O)Nc5nccs5)CC4)c3[nH]2)cc1"
value_reported = 0.997

[[record]]
compound = "COc1cc2ncnc(Nc3cccc(Br)c3)c2cc1OC"
value_reported = 0.996

[[record]]
compound = "COc1cc2c(Oc3ccc4[nH]c(C)cc4c3F)ncnc2cc1OCCCN1CCCC1"
value_reported = 0.943

[[record]]
compound = "CCC1=C[C@@H]2CN(C1)Cc1c([nH]c3ccccc13)[C@@](C(=O)OC)(c1cc3c(cc1OC)N(C)[C@H]1[C@@](O)(C(=O)OC)[C@H](OC(C)=O)[C@]4(CC)C=CCN5CC[C@]31[C@@H]54)C2 [Vinorelbine tartrate]"
value_reported = 0.403


====

# System: A549
# Procedure Summary: relative viability (normalised to negative control = 1, bortezomib = 0) (fraction); higher = less cytotoxic
# Study Conditions: inflammatory serum-free RHB-A with cytokines + LPS; 5 d + 24 h CellTiter-Blue; compound 30 nM; GSK126 pretreatment: none (vehicle)
Result Type: relative viability

[[record]]
compound = "FC(F)(F)c1ccc(/C=C/c2nc(COc3ccc(CCCCn4ccnn4)cc3)co2)cc1"
assay_system = "A549"
value_reported = 0.837

[[record]]
compound = "Cc1c(CN2CCN(C(=O)[C@H](C)O)CC2)sc2c(N3CCOCC3)nc(-c3cnc(N)nc3)nc12"
assay_system = "A549"
value_reported = 0.754

[[record]]
compound = "CO[C@H]1C(=O)[C@]2(C)[C@@H](OC)C[C@H]3OC[C@@]3(OC(C)=O)[C@H]2[C@H](OC(=O)c2ccccc2)[C@]2(O)C[C@H](OC(=O)[C@H](O)[C@@H](NC(=O)OC(C)(C)C)c3ccccc3)C(C)=C1C2(C)C"
assay_system = "A549"
value_reported = 0.349

[[record]]
compound = "Cc1cc(C(C)Nc2ccccc2)c2nc(N3CCOCC3)cc(=O)n2c1 (configuration not stated)"
assay_system = "A549"
value_reported = 0.782

[[record]]
compound = "NC(=O)NO [Hydroxyurea]"
assay_system = "A549"
value_reported = 1.05

[[record]]
compound = "CO[C@H]1C[C@@H]2CC[C@@H](C)[C@@](O)(O2)C(=O)C(=O)N2CCCC[C@H]2C(=O)O[C@H]([C@H](C)C[C@@H]2CC[C@@H](OCCO)[C@H](OC)C2)CC(=O)[C@H](C)/C=C(\\C)[C@@H](O)[C@@H](OC)C(=O)[C@H](C)C[C@H](C)/C=C/C=C/C=C/1C [Everolimus; Everolimus(RAD001)]"
assay_system = "A549"
value_reported = 0.615

[[record]]
compound = "CC1=C(/C=C/C(C)=C/C=C/C(C)=C/C(=O)O)C(C)(C)CCC1 [Retinoic acid; Tretinoin; 13-cis-retinoic acid]"
assay_system = "A549"
value_reported = 0.922

